Procedure text: Compound analysis: liver, adipose and plasma concentrations 3 days after a single oral dose
Assay type: in vivo, female C57BL/6 mice
Stated conditions: female, C57BL/6, mouse, in vivo, po, 0.5 µg/kg bw, oral dose 0.5 µg/kg bw; 3 days after single oral dose; read-out: Liver concentration
Method: Animals. Eight-week-old female C57BL/6 mice (Harlan laboratories, Venray, the Netherlands) were randomly assigned to treatment groups (six animals per group) and allowed to acclimate for 1.5 weeks. […] Compound analysis. […] Because the samples typically contained high levels of the analytes, only a small fraction was evaporated and analyzed. […] For lipid determination, samples were evaporated to dryness after the extraction step, and the amount of lipids was determined gravimetrically. […]
Entries and their concentration at 3 days
Value type: concentration at 3 days

Compound: Clc1cc2c(cc1Cl)Oc1c(cc(Cl)c(Cl)c1Cl)O2
Value type: concentration at 3 days
Result: 4 ng/g
--
Compound: Clc1cc2c(cc1Cl)Oc1cc(Cl)c(Cl)cc1O2 [TCDD, 2,3,7,8-tetrachlorodibenzodioxin, reference compound]
Value type: concentration at 3 days
Result: 3.3 ng/g

* * *

Procedure text: Body and organ weight, hepatic lipid content
Type: in vivo, female C57BL/6 mice
Stated conditions: oral dose 100 µg/kg bw; day 3
Thymus weight values, listed per item

Molecule: Clc1cc2c(cc1Cl)Oc1c(cc(Cl)c(Cl)c1Cl)O2
Thymus weight: 0.24 ± 0.05 % of bw
//
Molecule: Clc1cc2oc3c(Cl)c(Cl)c(Cl)cc3c2cc1Cl
Thymus weight: 0.22 ± 0.04 % of bw
//
Molecule: Clc1cc2c(cc1Cl)Oc1cc(Cl)c(Cl)cc1O2 [TCDD, 2,3,7,8-tetrachlorodibenzodioxin, reference compound]
Thymus weight: 0.19 ± 0.04 % of bw
//
Molecule: Clc1ccc(-c2cc(Cl)c(Cl)c(Cl)c2)cc1Cl
Thymus weight: 0.25 ± 0.06 % of bw

* * *

Test system: hepatic CYP1A1 activity (ethoxyresorufin-O-deethylase, EROD)
Procedure text: Hepatic EROD activity in hepatic microsomal fractions after single oral dose
Type: in vivo, female C57BL/6 mice
Stated conditions: relative to TCDD; dose metric Syst liver (ng/g liver)
// REP Liver EROD activity lookup, one value per entry
Value type: REP Liver EROD activity

Molecule: Clc1ccc(-c2cc(Cl)c(Cl)c(Cl)c2)cc1Cl
Quantitative readout: 0.004

Molecule: Clc1cc2c(cc1Cl)Oc1c(cc(Cl)c(Cl)c1Cl)O2
Quantitative readout: 0.3

Molecule: Clc1cc2c(cc1Cl)Oc1cc(Cl)c(Cl)cc1O2 [TCDD, 2,3,7,8-tetrachlorodibenzodioxin, reference compound]
Quantitative readout: 1

Molecule: Clc1ccc(-c2cc(Cl)c(Cl)c(Cl)c2Cl)cc1Cl
Quantitative readout: 0.0002

Molecule: Clc1ccc(-c2cc(Cl)c(Cl)cc2Cl)cc1Cl
Quantitative readout: 0.00006

* * *

Tested on: Cyp1a1 mRNA in PBLs
Procedure text: Cyp1a1 gene expression in peripheral blood lymphocytes
Assay type: in vivo, female C57BL/6 mice
Stated conditions: relative to TCDD; dose metric Syst plasma (ng/g lipid)
Value type: REP PBLs Cyp1a1 mRNA

Compound: Clc1ccc(-c2cc(Cl)c(Cl)c(Cl)c2)cc1Cl [PCB-126, 3,3´,4,4´,5-pentachlorobiphenyl]
Assay system: Cyp1a1 mRNA in PBLs
Value type: REP PBLs Cyp1a1 mRNA
Result: 0.06
//
Compound: Clc1cc2c(cc1Cl)Oc1cc(Cl)c(Cl)cc1O2 [TCDD, 2,3,7,8-tetrachlorodibenzodioxin, reference compound]
Assay system: Cyp1a1 mRNA in PBLs
Value type: REP PBLs Cyp1a1 mRNA
Result: 1
//
Compound: Clc1cc2c(cc1Cl)Oc1c(cc(Cl)c(Cl)c1Cl)O2 [PeCDD, 1,2,3,7,8-pentachlorodibenzodioxin]
Assay system: Cyp1a1 mRNA in PBLs
Value type: REP PBLs Cyp1a1 mRNA
Result: 1.5
//
Compound: Clc1ccc(-c2cc(Cl)c(Cl)c(Cl)c2Cl)cc1Cl [PCB-156, 2,3,3´,4,4´,5-hexachlorobiphenyl]
Assay system: Cyp1a1 mRNA in PBLs
Value type: REP PBLs Cyp1a1 mRNA
Result: 0.00002
